- System: RXF 393 renal
- protocolSummary: NCI tumour cell line growth inhibition, 48 h
Please use fulfilled whenever TGI is not below 9 µM, and not fulfilled whenever it is.

The following molecules have reported results that may help.
In [3]: df
Out[3]:
                                   molecule  assignedclass
0          CC(=O)c1cc2c(s1)C(=O)c1sccc1C2=O  not fulfilled
1  O=c1c2ccccc2c(/C=N\NC2=NCCN2)c2oc3ccccc3n12      fulfilled
2       OC[C@H]1NC[C@@H](O)[C@@H](O)[C@H]1O      fulfilled
3  COc1ccc2c(=O)cc(-c3ccc(OC)c(OC)c3OC)oc2c1      fulfilled
4          CCOC(=O)c1ccc(C(=O)n2ccnc2)[nH]1      fulfilled

Note: attention shifts to another entry.
Ask: Hi, just wondering whether CC(NCc1c(O)ccc2ccc(=O)oc12)C(=O)O (stereo not drawn) shows TGI of 9 µM or higher.
Reply: fulfilled

// provenance: PubChem BioAssay (NCI)
